tested on: PPARg:RXRa (NR concentration 180 nM, RXRa partner concentration 90 nM); test: PBM binding z-score (relative to random genomic background probes); higher = stronger binding; sequences stand for … in GC…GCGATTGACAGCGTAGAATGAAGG
Record fulfilled whenever PBM binding z-score is at 2 or higher; record not fulfilled when lower.

CGTCAAAGTTCAAGGTAGCGTAACAGAAAGCAGC = fulfilled
TCAGACAGGTGAAGGCAACTCAGGTACGCAGTCG = not fulfilled
CGTCCACGGTCATAGGAGGTCAGTGAAGACAGAT = not fulfilled
CAAACTAAGTCAAGGTCAAAGTCGGTTTGTGCCA = fulfilled
ATCTCTAGGTAAAAGTTCAGTGAGTCCCGAGGAT = fulfilled

q: Could you please find out whether GGAACGAGGGCAAAGTTGATCGCATCTGTCGACG has PBM binding z-score that meets 2 or exceeds it?
a: fulfilled

q: Could you please find out whether CCTCGGAGGACAACAGGAGATCAGAGCTGCCAGA has PBM binding z-score that meets 2 or exceeds it?
a: not fulfilled

q: Could you please find out whether TCTTCTAGGTCAGTTGGTCAGCTAACGAGCTGCC has PBM binding z-score that meets 2 or exceeds it?
a: fulfilled

q: Could you please find out whether AGAATGAGGTTATTAAGATCAGGGCATTGCGGTC has PBM binding z-score that meets 2 or exceeds it?
a: not fulfilled

q: Could you please find out whether GCTTACGGATCAAAGGTTATAGCATGAATAGAAT has PBM binding z-score that meets 2 or exceeds it?
a: fulfilled

q: Could you please find out whether TAGCCTAGGTCGTGCGGGCCAGTATAGTGTCGGC has PBM binding z-score that meets 2 or exceeds it?
a: not fulfilled

* * *

Exercise: for every item that follows, state its recorded PBM binding z-score.
system: PPARg:RXRa 90nM:30nM, anti-RXR (NR concentration 90 nM, RXRa partner concentration 30 nM); assay: PBM binding z-score (relative to random genomic background probes); higher = stronger binding; sequences stand for … in GC…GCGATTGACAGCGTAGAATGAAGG
Answers are plain numbers.

// solved cases for PBM binding z-score follow
ATATGTAGGTTAGCCGGGGTCATTCAGACTAGGC = 5.29
GCAGACAGGTGAGACGCAGGTAACTCAGGGTGGC = -0.532
ATCTCTAGGTAACCAAGTTCAGTCAATGCCGAAC = 0.74

The following sequences each have a reported value; give each one's PBM binding z-score.
1. CCTCGGAGGACTACAGGAGGTCAGAGCTGCCAGA
2. CCTTACGGGGCAAGGTTATAGCACGGGTGGTACG
3. CCGACTGGGGCATAAAGTTACCATAAGCCAGCCC

a:
1: -0.225; 2: 0.442; 3: 0.313

* * *

tested on: PPARg homodimer (NR concentration 180 nM); assay: PBM binding z-score (relative to random genomic background probes); higher = stronger binding; sequences stand for … in GC…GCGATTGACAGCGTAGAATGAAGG
Exercise: for every item that follows, state its recorded PBM binding z-score.

// solved cases for PBM binding z-score follow
ATCTCTAGGTATCAAGTTCAGTGAAAGAGAGGAC = 0.949
ACTAGCAGACCAAGGGTCACTCAAGATTAGTCCG = 1.55
CCAGACAGGTAAAAGGTAACTCAGTCTGGTACGC = 0.614
AGAACGAGGGCACGCTGAGCTGATAGCAGAGTAG = 0.179
CCTTACGGGGCACTGACAGGTTATAGCATTTGGA = 0.227
CGTCCAAGGTCAAAGGTCAGAGAAGAGATGACGG = 3.77
CCCACTGGGCCAAGGTCATTGATCAGTCAAAGCA = 1.75
GATATAGGGTCAAGGCCAGAGTACGCGTATTGAT = 3.01
GATACAGGGTCAGCCAGAGGCCAGAGTATGGAAA = 2.32
TCATAGAGGTAAAAGGTGAAAGTCGGTGTGGTAA = 0.851

The following sequences each have a reported value; give each one's PBM binding z-score.
1. CCTCGAAGGACAACAGGAGGTCAGAGCTGCCAGA
2. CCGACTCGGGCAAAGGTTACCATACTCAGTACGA
3. ATCTCTAGGTAACAAGTTCAGTGAGAGAGAGGAC
4. ATCGAAAGGTCGAAGTTGAGTATACCCACCCGAA
5. GGAACGAGGGCATTCGAGTTGGTAGCATGGCGAT
6. TCTTGTAGATCAATAGAGGTTGAGAAAGTGCGCT

a:
1: 1.76; 2: 2.32; 3: 1.39; 4: 1.31; 5: -0.0441; 6: -0.399

* * *

system: RXRa homodimer (NR concentration 180 nM); test: PBM binding z-score (relative to random genomic background probes); higher = stronger binding; sequences stand for … in GC…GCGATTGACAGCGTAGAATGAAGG
Exercise: for every item that follows, state its recorded PBM binding z-score.
One number for each entry.

// solved cases for PBM binding z-score follow
TTACCAAGGTGAGCTGAGGTCGTGGATCCAACTC = 1.82
CTCGAAAGGTCGGTAGAGGTGAGTATACGGATAA = 2.49
ATCGAAAGGTCGACGAGGTGAGTGTACACCGTTT = 4.92
GCGGACAGGTGAAACGCAGGTAACTCAGGGTGGC = 0.426
ACTTACGGGTCAACGAGGTTACAGCACGCGTATA = 6.55

Read the next record carefully.
q: So what does the record say about PBM binding z-score for TAGCATAGGTCATGGGCCAGTATACCACGCGAAC ?
a: 5.71

* * *

test system: PPARg:RXRa 30nM:10nM, anti-RXR (NR concentration 30 nM, RXRa partner concentration 10 nM); test: PBM binding z-score (relative to random genomic background probes); higher = stronger binding; sequences stand for … in GC…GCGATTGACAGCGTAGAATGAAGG
Exercise: for every item that follows, state its recorded PBM binding z-score.
One number for each entry.

// solved cases for PBM binding z-score follow
GATACAAGGTCAAGGCCAGAGTACGCGTATTGAT = 2.28
CTTCCAAGGTCAAGGTCAGTGAAAGAGACTCGAA = 3.11
CCTCCTGGGCCAAAAAGGTCATTGATGCCGATAA = 0.448
CCTCGGAGGACAGAAGGTCAGAGCCGTCCGCTTT = -0.897
GGAACGAGGGCATTCGAGTTGATAGCGTGGCGAT = -0.488
CTACCAAGGTGAACAAGGTCTTTGATTACTATTC = 0.0464

The following sequences each have a reported value; give each one's PBM binding z-score.
1. AGAATGAGGTTATTAAGATCAGGGATTTGCGGTC
2. ACTAGCAGGCCAAGTTTGGGTCAATCAAACAAAG
3. TCTCGGAGGACACGAAGGGCAGAGCTTTCCAGAG
4. ATCTCTAGGTAAGACTCAGTTCAGTGGAGAACGC
5. GATACAGGGTCAAGGCCACAGTACGCGTATTGAT
6. TCTATTAGTTGAAGGCCAACCGACGAGTCCGTTT

a:
[0.623, -0.327, 1.78, 0.129, 2.54, 4.11]

* * *

system: PPARg:RXRa 30nM:10nM, anti-RXR (NR concentration 30 nM, RXRa partner concentration 10 nM); assay: PBM binding z-score (relative to random genomic background probes); higher = stronger binding; sequences stand for … in GC…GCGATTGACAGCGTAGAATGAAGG
Record Criterion met whenever PBM binding z-score is at 0.6 or higher; record Criterion not met when lower.

Known results for sequences:
CTCGAAAGGTCGGTTGAGGTGAGAATACGGATAA = Criterion not met
TCTGCTAGGTCAGTTGGTCCGCTAACGAGCTGCC = Criterion met
CCGACTGGGCCACGAAAGGTCATTGATTCAGTGA = Criterion met

q: Could you please find out whether TTTCCAAGGTGAGCTGAGGTCGTTGATCCAACTC has PBM binding z-score that meets 0.6 or exceeds it?
a: Criterion not met

q: Could you please find out whether TCATATAGGGAATACAGGTGAAAGTCGGCATCTA has PBM binding z-score that meets 0.6 or exceeds it?
a: Criterion met

q: Could you please find out whether TCATATAGGTAAAAGGTGAATGTCGGTGTGGTAA has PBM binding z-score that meets 0.6 or exceeds it?
a: Criterion met

q: Could you please find out whether TCATATAGGTAAATGCTAGGTGAAACTCCGATCT has PBM binding z-score that meets 0.6 or exceeds it?
a: Criterion met

q: Could you please find out whether TCTATTAGTTGATTAGGGCAACCGCAACAGCGGA has PBM binding z-score that meets 0.6 or exceeds it?
a: Criterion met

q: Could you please find out whether AGAATGAGGTAATACGTAGATCAGGGAAGAAAGT has PBM binding z-score that meets 0.6 or exceeds it?
a: Criterion not met

q: Could you please find out whether CCTTACGGGGCACTCCAGGTTATAGCATCGGAGT has PBM binding z-score that meets 0.6 or exceeds it?
a: Criterion not met

q: Could you please find out whether ATTTCTAGGTAAAGTTCAGTGAAAGATCGATAGA has PBM binding z-score that meets 0.6 or exceeds it?
a: Criterion met

q: Could you please find out whether TTACCAAGGTGAGCTGAGCTCGTTGATCCAACTC has PBM binding z-score that meets 0.6 or exceeds it?
a: Criterion not met
